measured target: UniProtKB Q13393
protocol notes: Evaluation of human PLD1 enzyme inhibitory activity (Amplex Red / choline oxidase fluorescence)
Format: biochemical
run parameters: full-length human PLD1 enzyme; read-out: PLD1 IC50
Protocol: A method for measuring human PLD1 enzyme inhibitory activity using an enzyme in which a FLAG-tag is added to the N-terminus of full-length human PLD1 (1-1036 amino acids) is shown below. DNA fragment in which a FLAG-tag sequence is added to the 5′-end of full-length human PLD1 was amplified by PCR method, using commercially available human PLD1 gene (Promega KK) as a template. […]
readout: pIC50
Lab note: report pIC50 as minus log10 of the concentration in molar units, number only.

Name the recorded pIC50 for `CNC(=O)C(=O)N[C@@H](C)C[C@H]1CC[C@]2(CC1)OC(=O)NN=C2c1cc(C(=O)NC)ccc1Br` .
7.68

Name the recorded pIC50 for `C[C@@H](C[C@H]1CC[C@]2(CC1)OC(=O)NN=C2c1ccc(S(C)(=O)=O)cc1)NC(=O)c1cc2cc(F)ccc2[nH]1` .
7.52

Name the recorded pIC50 for `C[C@@H](C[C@H]1CC[C@]2(CC1)OC(=O)NN=C2c1ccc(F)cc1Br)NC(=O)N1CCC2(CC2)C1` .
7.01

Name the recorded pIC50 for CNC(=O)C(=O)N[C@@H](C)CN1CCC2(CO1)OC(=O)NN=C2c1cc(C#N)ccc1Br (stereo partly shown) .
6.66

Name the recorded pIC50 for `Cc1cc(C(=O)N[C@@H](C)C[C@H]2CC[C@]3(CC2)OC(=O)NN=C3c2cnc(N3CCOCC3)cc2C)[nH]n1` .
7.80

Name the recorded pIC50 for `Cc1cc(C(=O)N[C@@H](C)C[C@H]2CC[C@]3(CC2)OC(=O)NN=C3c2cccc(OC(F)F)c2Br)[nH]n1` .
7.89

====

measured target: full-length human PLD1 (Homo sapiens (Human), UniProt Q13393)
Sequence (Q13393 other isoform, or with tags, fused parts or gaps): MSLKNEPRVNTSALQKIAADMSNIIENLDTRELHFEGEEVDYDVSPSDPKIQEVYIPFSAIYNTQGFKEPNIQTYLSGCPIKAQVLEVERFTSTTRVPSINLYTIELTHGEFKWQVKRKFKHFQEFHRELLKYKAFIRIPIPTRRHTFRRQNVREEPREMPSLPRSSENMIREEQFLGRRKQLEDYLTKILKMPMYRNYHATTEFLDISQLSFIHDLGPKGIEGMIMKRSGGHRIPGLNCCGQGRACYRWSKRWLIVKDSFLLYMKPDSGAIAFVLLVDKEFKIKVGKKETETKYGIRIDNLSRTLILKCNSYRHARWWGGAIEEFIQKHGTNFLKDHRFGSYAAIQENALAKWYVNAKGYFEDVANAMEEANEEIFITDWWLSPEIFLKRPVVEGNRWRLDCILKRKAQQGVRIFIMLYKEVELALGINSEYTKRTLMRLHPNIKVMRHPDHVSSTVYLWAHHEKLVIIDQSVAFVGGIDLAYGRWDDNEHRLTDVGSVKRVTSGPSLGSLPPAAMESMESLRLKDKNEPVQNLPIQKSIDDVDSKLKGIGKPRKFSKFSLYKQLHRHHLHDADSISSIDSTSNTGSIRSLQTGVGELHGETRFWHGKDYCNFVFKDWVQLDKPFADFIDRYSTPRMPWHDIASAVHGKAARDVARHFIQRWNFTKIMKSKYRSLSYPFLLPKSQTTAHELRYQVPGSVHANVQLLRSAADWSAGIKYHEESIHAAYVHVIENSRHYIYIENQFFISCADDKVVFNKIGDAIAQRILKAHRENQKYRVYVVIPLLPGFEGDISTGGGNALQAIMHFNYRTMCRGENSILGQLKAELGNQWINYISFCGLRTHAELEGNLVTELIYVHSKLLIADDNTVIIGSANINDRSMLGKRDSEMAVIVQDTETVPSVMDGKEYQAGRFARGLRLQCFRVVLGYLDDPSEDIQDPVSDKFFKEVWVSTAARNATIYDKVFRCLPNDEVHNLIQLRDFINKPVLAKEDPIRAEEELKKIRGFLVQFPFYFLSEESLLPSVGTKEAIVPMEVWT
protocol notes: Evaluation of human PLD1 enzyme inhibitory activity (Amplex Red / choline oxidase fluorescence)
Format: biochemical
run parameters: full-length human PLD1 enzyme; read-out: PLD1 IC50
readout: IC50 (nM)
Give just the numeric value; nM need not be written.

Name the recorded IC50 for `C[C@@H](C[C@H]1CC[C@]2(CC1)OC(=O)NN=C2c1nccn1CC1CC1)NC(=O)c1cc(Cl)no1` .
259

Name the recorded IC50 for `CSc1ccc(C2=NNC(=O)OC23CCN(C[C@H](C)NC(=O)c2cc(C)n[nH]2)CC3)c(Cl)c1` .
25

Name the recorded IC50 for `Cc1cc(Cl)c(C2=NNC(=O)O[C@]23CC[C@@H](C[C@H](C)NC(=O)N2CCn4nccc4C2)CC3)cn1` .
21

Name the recorded IC50 for `CNC(=O)C(=O)N[C@@H](C)C[C@H]1CC[C@]2(CC1)OC(=O)NN=C2c1cccc(C)c1C` .
18

====

measured target: full-length human PLD2 (Homo sapiens (Human))
Sequence (O14939 whole entry): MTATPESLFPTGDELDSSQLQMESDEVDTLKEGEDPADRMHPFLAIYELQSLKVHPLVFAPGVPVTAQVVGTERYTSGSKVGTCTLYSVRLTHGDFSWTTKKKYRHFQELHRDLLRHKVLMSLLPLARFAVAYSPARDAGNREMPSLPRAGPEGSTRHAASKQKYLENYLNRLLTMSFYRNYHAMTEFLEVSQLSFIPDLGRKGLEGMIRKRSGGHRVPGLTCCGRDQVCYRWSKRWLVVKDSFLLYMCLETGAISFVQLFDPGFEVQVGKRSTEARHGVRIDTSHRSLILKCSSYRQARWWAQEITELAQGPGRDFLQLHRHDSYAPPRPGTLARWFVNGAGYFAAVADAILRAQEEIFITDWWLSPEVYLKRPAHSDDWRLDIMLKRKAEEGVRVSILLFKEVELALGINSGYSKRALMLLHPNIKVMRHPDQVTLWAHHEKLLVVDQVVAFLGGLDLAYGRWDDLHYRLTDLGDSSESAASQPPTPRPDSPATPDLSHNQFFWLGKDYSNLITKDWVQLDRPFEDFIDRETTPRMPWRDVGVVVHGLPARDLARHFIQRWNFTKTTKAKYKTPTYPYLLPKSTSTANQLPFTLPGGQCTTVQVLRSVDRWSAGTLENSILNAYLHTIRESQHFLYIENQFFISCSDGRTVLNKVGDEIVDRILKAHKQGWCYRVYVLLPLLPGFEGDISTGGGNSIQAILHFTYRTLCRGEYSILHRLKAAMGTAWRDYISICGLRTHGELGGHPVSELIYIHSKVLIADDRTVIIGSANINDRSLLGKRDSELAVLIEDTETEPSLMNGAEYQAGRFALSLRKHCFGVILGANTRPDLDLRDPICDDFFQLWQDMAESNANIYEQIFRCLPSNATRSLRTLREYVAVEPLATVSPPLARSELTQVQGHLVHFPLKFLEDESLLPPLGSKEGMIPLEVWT
protocol notes: Evaluation of human PLD2 enzyme inhibitory activity (Amplex Red / choline oxidase fluorescence)
Assay type: biochemical
run parameters: full-length human PLD2 enzyme; read-out: PLD2 IC50
Experimental: A method for measuring human PLD2 enzyme inhibitory activity using an enzyme in which a FLAG-tag is added to the N-terminus of full-length human PLD2 (1-933 amino acids) is shown below. DNA fragment in which a FLAG-tag sequence is added to the 5′-end of full-length human PLD2 was amplified by PCR method, using commercially available human PLD2 gene (Promega KK) as a template. […]
Can you tell me pIC50 for the items I'm about to list?
Lab note: report pIC50 as minus log10 of the concentration in molar units, number only.

Name the recorded pIC50 for `CNC(=O)C(=O)N[C@@H](C)CN1CCC2(CC1)OC(=O)NN=C2c1ccc(C#N)cc1Cl` .
7.46

Name the recorded pIC50 for `C[C@@H](CN1CCC2(CC1)OC(=O)NN=C2c1ccc(F)cc1Cl)NC(=O)c1cc(C(F)(F)F)on1` .
6.43

Name the recorded pIC50 for `CNC(=O)C(=O)N[C@@H](C)C[C@H]1CC[C@]2(CC1)OC(=O)NN=C2c1cccc2c1OC(F)(F)O2` .
7.14

Name the recorded pIC50 for `CNC(=O)C(=O)N[C@@H](C)C[C@H]1CC[C@]2(CC1)OC(=O)NN=C2c1cnc(C(C)(C)O)cc1C` .
7.19

Name the recorded pIC50 for `COc1cc(C)c(C2=NNC(=O)O[C@]23CC[C@@H](C[C@H](C)NC(=O)N2CCn4ncnc4C2)CC3)cn1` .
6.67

Name the recorded pIC50 for CNC(=O)C(=O)N[C@@H](C)CN1CC2CC1CC21OC(=O)NN=C1c1ccc(F)cc1Br (mixture of isomers) .
7.46

Name the recorded pIC50 for `CNC(=O)C(=O)N[C@@H](C)C[C@H]1CC[C@]2(CC1)OC(=O)NN=C2c1ccc(Br)cc1C` .
7.89

Name the recorded pIC50 for `C[C@@H](C[C@H]1CC[C@]2(CC1)OC(=O)NN=C2c1ccc(OC(F)(F)F)cc1Br)NC(=O)NC1CC1` .
7.17

Name the recorded pIC50 for `C[C@@H](C[C@H]1CC[C@]2(CC1)OC(=O)NN=C2c1ccc(F)cc1Cl)NC(=O)c1cc2cc(F)ccc2o1` .
7.96
